Each recorded value in this set is attributed to paper PMC9965125.

Tested on: gastric mucosa
CONDITION: both, albino, mouse, in vivo, po, 10 mg/kg, 3 days
Measured Average Severity of Ulcer, listed per entry.
PROPERTY_NAME: Average Severity of Ulcer

[[record]]
compound = "COc1ccc2c(c1)c(CC(=O)O)c(C)n2C(=O)c1ccc(Cl)cc1 [Indo, Indomethacin, reference compound]"
target_system = "gastric mucosa"
reported_result = 1.67

[[record]]
compound = "CC(C)Cc1ccc(C(C)C(=O)OCc2cn(-c3ccccc3Cl)nn2)cc1 (stereo not shown) [Compound 5a]"
target_system = "gastric mucosa"
reported_result = 0

[[record]]
compound = "Cc1ccc(-n2cc(COC(=O)C(C)c3ccc(CC(C)C)cc3)nn2)cc1 (stereo not shown) [Compound 5d]"
target_system = "gastric mucosa"
reported_result = 0

[[record]]
compound = "CC(C)Cc1ccc(C(C)C(=O)OCc2cn(-c3ccc(Cl)cc3)nn2)cc1 (stereo not shown) [Compound 5b]"
target_system = "gastric mucosa"
reported_result = 0

[[record]]
compound = "CC(C)Cc1ccc(C(C)C(=O)O)cc1 (stereo not shown) [Ibu, Ibuprofen, reference compound]"
target_system = "gastric mucosa"
reported_result = 0.67

[[record]]
compound = "COc1ccccc1-n1cc(COC(=O)C(C)c2ccc(CC(C)C)cc2)nn1 (stereo not shown) [Compound 5e]"
target_system = "gastric mucosa"
reported_result = 0

[[record]]
compound = "C#CCOC(=O)C(C)c1ccc(CC(C)C)cc1 (stereo not shown) [Compound 3]"
target_system = "gastric mucosa"
reported_result = 0.67

